Where do the numbers come from? From patent US5037822A.

- Tested on: isolated guinea pig ileum, contractions induced by acetylcholine
- procedure.details: Antagonist action on acetylcholine-induced contractions of isolated guinea pig ileum
- Assay type: cell-based
- cond: Cavia porcellus; acetylcholine 1×10^-6 M, contact time one minute, 37° C.; read-out: Antagonist to ACh, IC50
readout.label: IC50 (nM)

In the examples that follow, each entry is paired with its recorded IC50.
{"cpd.smiles": "O=S(=O)(c1ccc(N2CCCCCC2)cc1)N1CCCC1=S", "test.system": "isolated guinea pig ileum, contractions induced by acetylcholine", "value.unit": "nM", "IC50": 280}
{"cpd.smiles": "O=S(=O)(c1ccc(N2CCCCC2)cc1)N1CCCCC1=S", "test.system": "isolated guinea pig ileum, contractions induced by acetylcholine", "value.unit": "nM", "IC50": 3600}
{"cpd.smiles": "CCN(CC)c1ccc(S(=O)(=O)N2CCCCC2=S)cc1", "test.system": "isolated guinea pig ileum, contractions induced by acetylcholine", "value.unit": "nM", "IC50": 340}

1: CCN(CC)c1ccc(S(=O)(=O)N2CCCC2=S)cc1
2: O=S(=O)(c1ccc(N2CCCCCC2)cc1)N1CCCCC1=S
3: O=S(=O)(c1ccc(N2CCCCC2)cc1)N1CCCC1=S
Ask: Sort the molecules on IC50; start with the lowest figure. # format: label list in the order the request specifies
Result: 2, 1, 3

---

Form field: pIC50 (one value per entry).
- System: isolated guinea pig ileum, contractions induced by histamine
- procedure.details: Antagonist action on histamine-induced contractions of isolated guinea pig ileum
- Type: cell-based
- cond: Cavia porcellus; histamine 1×10^-5 M, contact time one minute, 37° C.; read-out: Antagonist to Histam., IC50
pIC50: −log10 of the molar value.

{"cpd.smiles": "CCN(CC)c1ccc(S(=O)(=O)N2CCCC2=S)cc1", "test.system": "isolated guinea pig ileum, contractions induced by histamine", "readout.label": "pIC50", "measured.value": "< 5.00"}

Ask: Missing value: pIC50, isolated guinea pig ileum, contractions induced by histamine, entry `CCN(CC)c1ccc(S(=O)(=O)N2CCCCC2=S)cc1` . Fill in?
Result: < 5.00

---

- Test system: cholinomimetic effects induced by carbachol
- procedure.details: In vivo anticholinergic action: inhibition of carbachol-induced cholinomimetic effects in mice
- Design: species or system CD1 male mice
- cond: Mus musculus, ip, 30 min before carbachol 1 mg/kg s.c.; mice; read-out: Dose inhibiting carbachol-induced diarrhoea in 50% of the animals
Form field: ED50 (one value per entry).
Field format: number, assumed mg/kg, no unit text.

{"cpd.smiles": "O=S(=O)(c1ccc(N2CCCCCC2)cc1)N1CCCC1=S", "test.system": "cholinomimetic effects induced by carbachol", "ED50, mg/kg": 0.6}

Ask: Missing value: ED50, cholinomimetic effects induced by carbachol, entry `O=S(=O)(c1ccc(N2CCCCCC2)cc1)N1CCCCC1=S` . Fill in?
Result: 2

Ask: And for `O=S(=O)(c1ccc(N2CCCCC2)cc1)N1CCCCC1=S` ?
Result: 7

---

- Tested on: cholinomimetic effects induced by carbachol
- procedure.details: In vivo anticholinergic action: inhibition of carbachol-induced cholinomimetic effects in mice
- Design: species or system CD1 male mice
- cond: Mus musculus, ip, 30 min before carbachol 1 mg/kg s.c.; mice; read-out: Dose inhibiting carbachol-induced salivation in 50% of the animals
Form field: ED50 (one value per entry).

Ask: What value of ED50 has been recorded for this entry: O=S(=O)(c1ccc(N2CCCCCC2)cc1)N1CCCC1=S [Example 5]
Result: 15 mg/kg

Ask: And for CCN(CC)c1ccc(S(=O)(=O)N2CCCC2=S)cc1 [Example 1] ?
Result: > 50 mg/kg

Ask: And for O=S(=O)(c1ccc(N2CCCCC2)cc1)N1CCCC1=S [Example 3] ?
Result: > 50 mg/kg

Ask: And for CCN(CC)c1ccc(S(=O)(=O)N2CCCCC2=S)cc1 [Example 2] ?
Result: > 50 mg/kg

Ask: And for O=S(=O)(c1ccc(N2CCCCC2)cc1)N1CCCCC1=S [Example 4] ?
Result: > 50 mg/kg

Ask: And for O=S(=O)(c1ccc(N2CCCCCC2)cc1)N1CCCCC1=S [Example 6] ?
Result: 40 mg/kg

---

- System: cholinomimetic effects induced by carbachol
- procedure.details: In vivo anticholinergic action: inhibition of carbachol-induced cholinomimetic effects in mice
- Design: species or system CD1 male mice
- cond: Mus musculus, ip, 30 min before carbachol 1 mg/kg s.c.; mice; read-out: Dose inhibiting carbachol-induced diarrhoea in 50% of the animals
readout.label: ED50 (mg/kg)
Field format: number, assumed mg/kg, no unit text.

In the examples that follow, each entry is paired with its recorded ED50.
{"cpd.smiles": "CCN(CC)c1ccc(S(=O)(=O)N2CCCC2=S)cc1", "value.unit": "mg/kg", "ED50": 5}
{"cpd.smiles": "O=S(=O)(c1ccc(N2CCCCC2)cc1)N1CCCC1=S", "value.unit": "mg/kg", "ED50": 3}

Turning now to a further record.
Ask: What value of ED50 has been recorded for this entry: `CCN(CC)c1ccc(S(=O)(=O)N2CCCCC2=S)cc1`
Result: 8
